# Method: drug combination growth inhibition, ovarian cancer – cell-based, oncology-focused library, rucaparib conditional, profiling panel (AID 1508598)
# Applied Conditions: patient-derived ovarian cancer cells, CellTiter-Glo viability, 144 h; at 5 µM; OCI-C5x cells; with rucaparib 10 µM; 100% = cells with rucaparib alone
The source made the active and inactive calls.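 Rule for the calls: active = normalized viability below 100% at a tested concentration; inactive = the rest.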
Write down the outcome that applies. Available outcomes: Yes for active, No for inactive

[
  {
    "Molecule": "COc1cc(C(=O)NC2CCN(C)CC2)ccc1Nc1ncc2c(n1)N(C1CCCC1)CC(F)(F)C(=O)N2C",
    "Classification": "Yes"
  },
  {
    "Molecule": "CC(C)(C(=O)NCC(F)(F)C(F)(F)F)C(=O)N[C@H]1C(=O)Nc2ccccc2-c2ccccc21",
    "Classification": "No"
  },
  {
    "Molecule": "O=c1[nH]c(=O)n([C@@H]2C[C@H](O)[C@@H](CO)O2)cc1F",
    "Classification": "No"
  }
]

Query: Lab log entry: `COc1cc(Br)c(Nc2nc(-c3c(C)nc4ncccn34)cs2)c(Br)c1` — outcome as called in the assay?
Reply: No

Query: Now the same for `CC(=O)[C@]1(O)Cc2c(O)c3c(c(O)c2[C@H](O[C@H]2C[C@H](N)[C@H](O)[C@H](C)O2)C1)C(=O)c1ccccc1C3=O`
Reply: Yes

Query: Now the same for `O=C1[C@H](CC[C@H](O)c2ccc(F)cc2)[C@H](c2ccc(O)cc2)N1c1ccc(F)cc1`
Reply: No

Query: Now the same for `Cc1cc([N+](=O)[O-])ccc1NS(=O)(=O)c1cc(Cl)ccc1Cl`
Reply: Yes

Query: Now the same for `Cc1[nH]c(C=C2C(=O)Nc3ccc(S(=O)(=O)Cc4c(Cl)cccc4Cl)cc32)c(C)c1C(=O)N1CCC[C@@H]1CN1CCCC1`
Reply: No

Query: Now the same for `CO[C@H]1C[C@@H]2CC[C@@H](C)[C@@](O)(O2)C(=O)C(=O)N2CCCC[C@H]2C(=O)O[C@H]([C@H](C)C[C@@H]2CC[C@@H](O)[C@H](OC)C2)CC(=O)[C@H](C)/C=C(\C)[C@@H](O)[C@H](OC)C(=O)[C@H](C)C[C@H](C)/C=C/C=C/C=C/1C`
Reply: No

Query: Now the same for `CC#C[C@@]1(O)CC[C@H]2[C@@H]3CCC4=CC(=O)CCC4=C3[C@H](c3ccc(N(C)C)cc3)C[C@@]21C`
Reply: No

Query: Now the same for `C=CCNC1=C2C[C@@H](C)C[C@H](OC)[C@H](O)[C@@H](C)/C=C(\C)[C@H](OC(N)=O)[C@@H](OC)/C=C\C=C(\C)C(=O)NC(=CC1=O)C2=O`
Reply: Yes

Query: Now the same for `Cc1ccc(NC(=O)c2ccc(CN3CCN(C)CC3)cc2)cc1Nc1nc(-c2cccnc2)cs1`
Reply: No

Query: Now the same for CCCCCOC(=O)Nc1nc(=O)n([C@@H]2O[C@H](C)[C@@H](O)C2O)cc1F (stereo partly specified)
Reply: No

Query: Now the same for `CCOC(=O)c1cnc2ccc(-c3cncc(NS(=O)(=O)c4ccccc4)c3)cn12`
Reply: Yes

Query: Now the same for CC(C)CC(CC(=O)NO)C(=O)N[C@@H](Cc1ccc2ccccc2c1)C(=O)N[C@@H](C)C(=O)NCCN (stereo partly specified)
Reply: No

Query: Now the same for `COC1=C2C[C@H](C)C[C@@H](OC)[C@H](O)[C@H](C)/C=C(\C)[C@H](OC(N)=O)[C@@H](OC)/C=C/C=C(\C)C(=O)NC(=CC1=O)C2=O`
Reply: Yes

Data provenance: PubChem BioAssay
